protocol.details: LNP size and PDI by dynamic light scattering
Type: physicochemical
condition.notes: mRNA LNP, cationic lipid/DSPC/cholesterol/PEG-lipid 50:10:38.5:1.5
Reported PDI values for a set of compounds
observation.type: PDI

INSERT INTO assay_data (compound, numeric_value) VALUES
  ('CCCCCCCC(C(=O)NCCCCCCCCCC(=O)OC(CCCCCC)CCCCCC)N(CCCN(CCO)C1CCCC1)C(=O)CCCCCCCCCC(=O)OC(CCCCCC)CCCCCC (stereo not drawn) [Compound B12]', 0.183),
  ('CCCCCCCC/C=C\CCCCCCCCNC(=O)C(CCCCCCCC)N(CCCCCCCC/C=C\CCCCCCCC)C(=O)CCCN(C)C (stereo not drawn) [Compound C1]', 0.108),
  ('CCCCCCCC(C(=O)NCCCCCCCCCC(=O)OC(CCCCCC)CCCCCC)N(CCn1ccnc1)C(=O)CCCCCCCCCC(=O)OC(CCCCCC)CCCCCC (stereo not drawn) [Compound B18]', 0.187);
